biological target: EPHA8 (human) (UniProt P29322); assay: radiometric filter-binding kinase assay, Kinase HotSpot; settings: compound 0.5 µM; ATP 10 µM
Sequence (P29322 whole entry, looked up): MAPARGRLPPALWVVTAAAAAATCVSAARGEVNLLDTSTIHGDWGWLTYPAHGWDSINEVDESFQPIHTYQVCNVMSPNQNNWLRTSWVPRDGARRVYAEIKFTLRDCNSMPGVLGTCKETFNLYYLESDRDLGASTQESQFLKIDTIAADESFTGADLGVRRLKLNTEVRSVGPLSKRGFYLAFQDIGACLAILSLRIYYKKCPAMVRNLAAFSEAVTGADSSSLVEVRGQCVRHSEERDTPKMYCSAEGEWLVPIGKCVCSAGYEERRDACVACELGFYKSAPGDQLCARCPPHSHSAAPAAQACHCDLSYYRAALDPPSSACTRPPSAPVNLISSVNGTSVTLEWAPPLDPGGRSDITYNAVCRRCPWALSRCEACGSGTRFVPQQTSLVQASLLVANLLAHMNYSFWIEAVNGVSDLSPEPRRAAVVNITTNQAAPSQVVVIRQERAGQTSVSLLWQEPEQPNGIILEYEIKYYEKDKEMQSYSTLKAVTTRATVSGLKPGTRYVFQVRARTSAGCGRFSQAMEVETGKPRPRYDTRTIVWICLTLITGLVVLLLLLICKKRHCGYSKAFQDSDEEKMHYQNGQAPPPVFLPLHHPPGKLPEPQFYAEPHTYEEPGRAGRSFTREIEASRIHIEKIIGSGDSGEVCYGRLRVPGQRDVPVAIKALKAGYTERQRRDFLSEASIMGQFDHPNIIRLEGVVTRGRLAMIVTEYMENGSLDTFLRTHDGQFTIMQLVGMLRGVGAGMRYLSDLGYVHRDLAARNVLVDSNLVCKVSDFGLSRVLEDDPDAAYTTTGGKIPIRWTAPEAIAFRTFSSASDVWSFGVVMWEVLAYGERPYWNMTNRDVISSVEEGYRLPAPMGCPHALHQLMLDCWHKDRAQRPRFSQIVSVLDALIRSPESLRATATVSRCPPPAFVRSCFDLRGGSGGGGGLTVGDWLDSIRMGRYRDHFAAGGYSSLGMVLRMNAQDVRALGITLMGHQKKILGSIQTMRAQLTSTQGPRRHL
Measure Name: residual activity (%)
Respond with the bare value in %.

Please review the following examples before continuing.
O=S(=O)(c1cccc2cnccc12)N1CCCNCC1    106
Cc1ccc(NC2=CC(=O)c3sc(C)nc3C2=O)cc1    94.1
CCOC(=O)c1c(C)[nH]c(/C=C2\C(=O)Nc3ccccc32)c1C    88.7

Identify the reported residual activity for the following entry. `Nc1ncnc2c1c(-c1ccc(Oc3ccccc3)cc1)cn2C1CCCC1`
95.2

Identify the reported residual activity for the following entry. `N#CC(C#N)=C(N)/C(C#N)=C/c1ccc(O)cc1`
102

Identify the reported residual activity for the following entry. `CCN(CC)CCNC(=O)c1c(C)[nH]c(/C=C2\C(=O)Nc3ccc(Cl)cc32)c1C`
99.5

Identify the reported residual activity for the following entry. `Oc1cccc(-c2nc(N3CCOCC3)c3oc4ncccc4c3n2)c1`
93.9

----------
biological target: MAP3K14 (human) (UniProt Q99558); test: radiometric filter-binding kinase assay, Kinase HotSpot; conditions: compound 0.5 µM; ATP 10 µM
Sequence (Q99558 whole entry, looked up): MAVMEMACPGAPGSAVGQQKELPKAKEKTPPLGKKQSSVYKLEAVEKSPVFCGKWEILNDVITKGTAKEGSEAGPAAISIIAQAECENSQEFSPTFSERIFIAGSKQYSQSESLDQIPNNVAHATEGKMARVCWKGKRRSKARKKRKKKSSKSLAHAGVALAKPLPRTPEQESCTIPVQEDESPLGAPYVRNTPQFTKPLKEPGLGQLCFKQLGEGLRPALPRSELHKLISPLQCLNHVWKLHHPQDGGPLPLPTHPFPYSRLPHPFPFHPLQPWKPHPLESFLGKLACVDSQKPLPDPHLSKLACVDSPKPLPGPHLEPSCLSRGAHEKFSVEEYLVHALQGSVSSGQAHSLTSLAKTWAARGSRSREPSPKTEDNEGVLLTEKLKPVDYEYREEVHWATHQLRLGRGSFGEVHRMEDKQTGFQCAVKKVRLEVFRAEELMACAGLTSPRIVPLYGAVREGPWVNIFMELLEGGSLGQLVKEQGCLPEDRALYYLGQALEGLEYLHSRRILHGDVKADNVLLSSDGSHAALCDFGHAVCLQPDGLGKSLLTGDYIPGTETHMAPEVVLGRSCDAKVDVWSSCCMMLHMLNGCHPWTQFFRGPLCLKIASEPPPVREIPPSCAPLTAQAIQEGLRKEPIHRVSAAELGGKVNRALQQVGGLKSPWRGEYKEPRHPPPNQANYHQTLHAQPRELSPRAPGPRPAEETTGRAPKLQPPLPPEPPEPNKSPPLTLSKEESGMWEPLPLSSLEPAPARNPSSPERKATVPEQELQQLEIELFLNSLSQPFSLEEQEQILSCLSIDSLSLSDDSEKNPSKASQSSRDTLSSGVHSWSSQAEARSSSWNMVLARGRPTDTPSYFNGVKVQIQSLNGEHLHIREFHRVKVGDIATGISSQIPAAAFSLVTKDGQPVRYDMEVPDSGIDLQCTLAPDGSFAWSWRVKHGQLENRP
# Lookup of reported residual activity keyed by entry
Respond with the bare value in %.

Please review the following examples before continuing.
O=C(Nc1cccc(Nc2nccc(Nc3cccc(C(F)(F)F)c3)n2)c1)C1CC1    109
COc1cc2ncnc(Nc3cccc(Cl)c3)c2cc1OC    107
O=c1cc(N2CCOCC2)oc2c1ccc1ccccc12    81.2
CC(=O)c1ccc(N2CCOCC2)cc1O    82.6
Nc1ncnc2c1c(-c1ccc(Oc3ccccc3)cc1)cn2C1CCCC1    113

Identify the reported residual activity for the following entry. `CCN(CC)CCNC(=O)c1c(C)[nH]c(/C=C2\C(=O)Nc3ccc(Cl)cc32)c1C`
118

Identify the reported residual activity for the following entry. `Cc1ccc(Nc2nccc(N(C)c3ccc4c(C)n(C)nc4c3)n2)cc1S(N)(=O)=O`
104

----------
target: GSG2 (human); assay: radiometric filter-binding kinase assay, Kinase HotSpot; details: compound 0.5 µM; ATP 10 µM
Assign 1 to entries whose residual activity meets or exceeds 90%; assign 0 to the rest.

Sample answers from the record:
O=C1NC(=O)c2c1c1c3ccccc3n3c1c1c2c2ccccc2n1C1CCC3O1    0
Cc1ccc(NC2=CC(=O)c3sc(C)nc3C2=O)cc1    0
COc1ccc(COc2ccc(Cc3cnc(N)nc3N)cc2OC)cc1    1
c1ccc(-c2n[nH]c3c2oc2ccccc23)cc1    1
O=C1NC(=O)/C(=C/c2ccc3c(c2)OC(F)(F)O3)S1    1

# check: residual activity of `N#C/C(=C(/N)Sc1ccc(N)cc1)c1ccccc1C(F)(F)F` is greater than or equal to 90%
1

# check: residual activity of `Nc1cccc(-c2cc3c(Oc4cccc(O)c4)ncnc3[nH]2)c1` is greater than or equal to 90%
1

# check: residual activity of `O=C1Nc2ccc(Cl)cc2/C1=C/c1cc(Cl)c(O)c(Cl)c1` is greater than or equal to 90%
0

# check: residual activity of `CCC(=O)Nc1ccc2ncnc(Nc3cccc(Br)c3)c2c1` is greater than or equal to 90%
1

# check: residual activity of `CCOC(=O)c1c(C)[nH]c(/C=C2\C(=O)Nc3ccccc32)c1C` is greater than or equal to 90%
1

# check: residual activity of `Nc1ccc2ncnc(NCCc3ccc(Oc4ccccc4)cc3)c2c1` is greater than or equal to 90%
1

# check: residual activity of `Nc1ncnc2c1c(-c1ccc(Oc3ccccc3)cc1)cn2C1CCCC1` is greater than or equal to 90%
1

----------
biological target: PDGFRA (human) (UniProt P16234); test: radiometric filter-binding kinase assay, Kinase HotSpot; conditions: compound 0.5 µM; ATP 10 µM
Sequence (P16234 whole entry, looked up): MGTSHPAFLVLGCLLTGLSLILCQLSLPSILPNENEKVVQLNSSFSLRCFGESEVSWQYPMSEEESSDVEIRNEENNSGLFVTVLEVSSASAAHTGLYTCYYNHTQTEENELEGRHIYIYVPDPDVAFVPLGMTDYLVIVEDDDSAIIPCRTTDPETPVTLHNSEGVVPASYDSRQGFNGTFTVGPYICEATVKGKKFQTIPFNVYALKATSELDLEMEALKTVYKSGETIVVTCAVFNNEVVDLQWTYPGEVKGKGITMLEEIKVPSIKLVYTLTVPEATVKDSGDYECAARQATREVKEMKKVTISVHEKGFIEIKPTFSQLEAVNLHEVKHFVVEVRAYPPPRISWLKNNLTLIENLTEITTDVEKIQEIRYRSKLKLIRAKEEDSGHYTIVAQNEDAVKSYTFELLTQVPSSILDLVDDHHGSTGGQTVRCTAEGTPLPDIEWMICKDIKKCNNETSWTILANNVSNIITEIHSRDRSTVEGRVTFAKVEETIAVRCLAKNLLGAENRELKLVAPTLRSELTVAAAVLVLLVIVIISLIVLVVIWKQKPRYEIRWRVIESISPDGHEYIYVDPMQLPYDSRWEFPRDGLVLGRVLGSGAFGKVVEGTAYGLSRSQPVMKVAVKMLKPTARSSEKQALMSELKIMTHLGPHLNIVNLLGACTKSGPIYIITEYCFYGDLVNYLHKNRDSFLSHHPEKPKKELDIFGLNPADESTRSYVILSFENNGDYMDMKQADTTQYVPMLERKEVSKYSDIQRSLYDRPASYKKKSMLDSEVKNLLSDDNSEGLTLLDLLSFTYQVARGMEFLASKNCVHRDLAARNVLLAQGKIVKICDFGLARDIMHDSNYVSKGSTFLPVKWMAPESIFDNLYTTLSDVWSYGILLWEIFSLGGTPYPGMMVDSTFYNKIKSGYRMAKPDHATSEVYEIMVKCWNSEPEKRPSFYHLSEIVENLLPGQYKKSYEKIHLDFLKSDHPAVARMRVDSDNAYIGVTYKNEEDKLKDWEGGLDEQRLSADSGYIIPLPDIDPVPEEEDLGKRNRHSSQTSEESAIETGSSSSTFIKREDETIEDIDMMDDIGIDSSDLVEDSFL
Label TRUE when residual activity is strictly below 90%; otherwise label FALSE.

c1ccc(-c2n[nH]c3c2oc2ccccc23)cc1    TRUE
N#CC(C#N)=C(N)/C(C#N)=C/c1ccc(O)cc1    FALSE
Nc1ncnc2[nH]nc(Nc3ccc(F)cc3)c12    FALSE
Cc1ccc(S(=O)(=O)/C=C/C#N)cc1    FALSE
COc1cc2ncnc(Nc3cccc(Cl)c3)c2cc1OC    FALSE
O=C1NC(=O)/C(=C/c2ccc3c(c2)OC(F)(F)O3)S1    FALSE
CC(C)N(CCC(=O)c1ccc2ccccc2c1)Cc1ccccc1    FALSE

In the record for `CCN(CC)CCNC(=O)c1c(C)[nH]c(/C=C2\C(=O)Nc3ccc(F)cc32)c1C` , is residual activity less than 90%?
TRUE

----------
molecular target: CDC42BPA (human) (UniProt Q5VT25); experiment: radiometric filter-binding kinase assay, Kinase HotSpot; conditions: compound 0.5 µM; ATP 10 µM
Sequence (Q5VT25 whole entry, looked up): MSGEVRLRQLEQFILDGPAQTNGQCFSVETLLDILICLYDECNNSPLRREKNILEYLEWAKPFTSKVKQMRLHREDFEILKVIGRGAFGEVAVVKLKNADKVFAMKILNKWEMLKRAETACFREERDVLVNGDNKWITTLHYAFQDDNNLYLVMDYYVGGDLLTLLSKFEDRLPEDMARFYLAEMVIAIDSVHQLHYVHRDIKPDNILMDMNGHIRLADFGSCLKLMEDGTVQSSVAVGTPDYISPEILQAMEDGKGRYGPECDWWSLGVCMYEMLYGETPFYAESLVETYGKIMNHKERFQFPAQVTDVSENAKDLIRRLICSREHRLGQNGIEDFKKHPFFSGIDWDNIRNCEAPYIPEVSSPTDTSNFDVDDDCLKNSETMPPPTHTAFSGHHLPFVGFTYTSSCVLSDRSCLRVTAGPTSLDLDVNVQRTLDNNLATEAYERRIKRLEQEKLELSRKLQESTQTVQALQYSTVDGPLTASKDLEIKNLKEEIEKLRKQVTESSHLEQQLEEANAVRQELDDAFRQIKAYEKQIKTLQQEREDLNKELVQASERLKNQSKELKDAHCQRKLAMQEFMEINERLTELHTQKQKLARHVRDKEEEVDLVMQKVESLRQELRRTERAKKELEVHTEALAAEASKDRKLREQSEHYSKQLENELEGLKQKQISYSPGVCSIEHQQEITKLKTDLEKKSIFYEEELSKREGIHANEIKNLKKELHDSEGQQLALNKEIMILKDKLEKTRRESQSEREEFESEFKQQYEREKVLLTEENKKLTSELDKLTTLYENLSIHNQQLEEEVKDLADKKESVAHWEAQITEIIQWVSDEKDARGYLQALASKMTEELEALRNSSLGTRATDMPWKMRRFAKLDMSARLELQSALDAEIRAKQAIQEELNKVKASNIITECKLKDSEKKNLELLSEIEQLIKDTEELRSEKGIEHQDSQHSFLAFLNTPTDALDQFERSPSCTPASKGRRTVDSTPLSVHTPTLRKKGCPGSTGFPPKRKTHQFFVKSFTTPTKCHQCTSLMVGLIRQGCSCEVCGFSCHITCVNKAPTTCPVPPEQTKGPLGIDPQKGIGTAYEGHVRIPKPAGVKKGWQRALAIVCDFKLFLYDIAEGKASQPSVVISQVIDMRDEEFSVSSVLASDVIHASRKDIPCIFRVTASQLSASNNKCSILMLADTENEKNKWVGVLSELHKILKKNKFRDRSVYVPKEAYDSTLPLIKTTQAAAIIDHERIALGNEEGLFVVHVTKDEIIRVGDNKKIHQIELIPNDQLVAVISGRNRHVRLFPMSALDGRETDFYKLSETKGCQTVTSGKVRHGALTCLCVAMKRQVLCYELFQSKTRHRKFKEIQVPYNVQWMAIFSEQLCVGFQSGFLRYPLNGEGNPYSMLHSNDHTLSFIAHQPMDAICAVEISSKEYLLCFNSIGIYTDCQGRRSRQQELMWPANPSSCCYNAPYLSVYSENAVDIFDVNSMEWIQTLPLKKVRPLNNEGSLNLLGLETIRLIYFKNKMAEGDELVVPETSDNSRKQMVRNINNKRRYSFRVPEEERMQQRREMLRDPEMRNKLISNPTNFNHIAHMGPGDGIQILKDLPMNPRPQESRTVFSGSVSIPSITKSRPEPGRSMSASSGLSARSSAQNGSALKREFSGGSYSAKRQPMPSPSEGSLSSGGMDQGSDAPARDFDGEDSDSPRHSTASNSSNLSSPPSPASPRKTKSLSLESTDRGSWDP
Label rule met when residual activity is strictly below 90%; otherwise label rule not met.

Sample answers from the record:
N#CC(C#N)=C(N)/C(C#N)=C/c1ccc(O)cc1    rule not met
O=C1NC(=O)/C(=C/c2ccc3c(c2)OC(F)(F)O3)S1    rule not met
CCC(=O)Nc1ccc2ncnc(Nc3cccc(Br)c3)c2c1    rule not met
Oc1cccc(-c2nc(N3CCOCC3)c3oc4ncccc4c3n2)c1    rule not met
O=C1Nc2ccc(Cl)cc2/C1=C/c1cc(Cl)c(O)c(Cl)c1    rule not met

In the record for `Cc1ccc(S(=O)(=O)/C=C/C#N)cc1` , is residual activity less than 90%?
rule not met

In the record for `CNC(=O)c1cc(Oc2ccc(NC(=O)Nc3ccc(Cl)c(C(F)(F)F)c3)cc2)ccn1` , is residual activity less than 90%?
rule met

In the record for `O=C(Nc1cccc(Nc2nccc(Nc3cccc(C(F)(F)F)c3)n2)c1)C1CC1` , is residual activity less than 90%?
rule not met

In the record for `CCCC(=O)Oc1ccc2[nH]c(C(=O)c3cc4ccccc4[nH]3)cc2c1` , is residual activity less than 90%?
rule not met

In the record for `Cc1ccc(Nc2nccc(N(C)c3ccc4c(C)n(C)nc4c3)n2)cc1S(N)(=O)=O` , is residual activity less than 90%?
rule met

In the record for `O=C1NC(=O)c2c1c1c3ccccc3n3c1c1c2c2ccccc2n1C1CCC3O1` , is residual activity less than 90%?
rule met

In the record for `O=C1NC(=O)C(c2cn(CCCn3ccnc3)c3ccccc23)=C1Nc1ccccc1` , is residual activity less than 90%?
rule not met

In the record for `CC[n+]1c(/C=C/N(C)c2ccccc2)n(-c2ccccc2)c2ccc(-c3nc4ccccc4s3)cc21` , is residual activity less than 90%?
rule not met

In the record for `Nc1ncnc2c1c(-c1ccc(Oc3ccccc3)cc1)cn2C1CCCC1` , is residual activity less than 90%?
rule not met

In the record for `Nc1ncnc2[nH]nc(Nc3ccc(F)cc3)c12` , is residual activity less than 90%?
rule not met

In the record for `COc1ccc2c(c[n+](C)c3c4cc5c(cc4ccc23)OCO5)c1OC` , is residual activity less than 90%?
rule met

In the record for `CC(C)N(CCC(=O)c1ccc2ccccc2c1)Cc1ccccc1` , is residual activity less than 90%?
rule not met

In the record for `CCN(CC)CCNC(=O)c1c(C)[nH]c(/C=C2\C(=O)Nc3ccc(Cl)cc32)c1C` , is residual activity less than 90%?
rule met

In the record for `Cc1[nH]c(/C=C2\C(=O)Nc3ccc(S(=O)(=O)N(C)c4cccc(Cl)c4)cc32)c(C)c1C(=O)N1CCN(C)CC1` , is residual activity less than 90%?
rule not met

----------
target: TNK2 (human); assay: radiometric filter-binding kinase assay, Kinase HotSpot; details: compound 0.5 µM; ATP 10 µM
# Lookup of reported residual activity keyed by entry
Respond with the bare value in %.

O=C1Nc2ccc(Cl)cc2/C1=C/c1cc(Cl)c(O)c(Cl)c1    32.4
N#C/C(=C(/N)Sc1ccc(N)cc1)c1ccccc1C(F)(F)F    100
c1ccc(-c2n[nH]cc2-c2ccnc3ccccc23)nc1    96.2
O=C1NC(=O)c2c1c1c3ccccc3n3c1c1c2c2ccccc2n1C1CCC3O1    2.39
CCN(CC)C(=O)c1ccc(Nc2nc(OCC3CCCCC3)c3nc[nH]c3n2)cc1    21.4

Identify the reported residual activity for the following entry. `CCOC(=O)c1c(C)[nH]c(/C=C2\C(=O)Nc3ccccc32)c1C`
92.7

Identify the reported residual activity for the following entry. `Cc1[nH]c(/C=C2\C(=O)Nc3ccc(S(=O)(=O)N(C)c4cccc(Cl)c4)cc32)c(C)c1C(=O)N1CCN(C)CC1`
65.4

Identify the reported residual activity for the following entry. `COc1ccc2c(c[n+](C)c3c4cc5c(cc4ccc23)OCO5)c1OC`
101

----------
target: CSNK1A1 (human); test: radiometric filter-binding kinase assay, Kinase HotSpot; details: compound 0.5 µM; ATP 10 µM
# Lookup of reported residual activity keyed by entry
Respond with the bare value in %.

Please review the following examples before continuing.
CC(=O)c1ccc(N2CCOCC2)cc1O    110
Oc1cccc(-c2nc(N3CCOCC3)c3oc4ncccc4c3n2)c1    87.9
COc1ccc2c(c[n+](C)c3c4cc5c(cc4ccc23)OCO5)c1OC    103

Identify the reported residual activity for the following entry. `CCCC(=O)Oc1ccc2[nH]c(C(=O)c3cc4ccccc4[nH]3)cc2c1`
94

These entries and their values trace back to the kinase profiling compilation of Christmann-Franck et al. (2016).
